These measurements were taken from patent US10329278B2.

# experimental target: human muscarinic M3 receptor (Homo sapiens)
# Construct: expressed in transfected cells
# Sequence (P20309 whole entry): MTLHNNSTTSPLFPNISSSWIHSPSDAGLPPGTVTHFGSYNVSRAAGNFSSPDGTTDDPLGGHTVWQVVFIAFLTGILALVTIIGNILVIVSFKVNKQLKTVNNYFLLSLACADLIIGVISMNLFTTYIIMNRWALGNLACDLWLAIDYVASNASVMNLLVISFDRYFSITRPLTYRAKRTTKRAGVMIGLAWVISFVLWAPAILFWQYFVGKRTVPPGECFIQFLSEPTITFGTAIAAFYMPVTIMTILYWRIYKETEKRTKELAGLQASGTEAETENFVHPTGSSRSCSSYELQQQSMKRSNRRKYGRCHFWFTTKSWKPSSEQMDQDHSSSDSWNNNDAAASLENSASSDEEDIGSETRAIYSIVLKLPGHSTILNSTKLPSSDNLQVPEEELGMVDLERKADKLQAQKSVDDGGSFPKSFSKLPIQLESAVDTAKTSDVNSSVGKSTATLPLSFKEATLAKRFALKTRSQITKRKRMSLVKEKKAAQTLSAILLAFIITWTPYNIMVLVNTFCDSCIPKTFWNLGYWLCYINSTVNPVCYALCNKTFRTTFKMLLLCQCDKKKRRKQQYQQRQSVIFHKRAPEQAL
# test details: Alphascreen Surefire phospho-ERK1/2 functional assay, M3
# Type: cell-based
# condition label: CHO, read-out: % Emax cf. ACh (M3)
The entries below come with measured Emax values attached.
reported property: Emax

compound | reported property | data value
CCOC(=O)N1CCC2(CC(N3CC4C(C3)C4C(=O)N3CCC34CC4)C2)C1 (single isomer, unassigned) [2-19 Isomer 2] | Emax | 35%
CCOC(=O)N1CCC2(CC(N3CC4C(C3)C4OC(C)c3ccccc3)C2)C1 (single isomer, unassigned) [2-28 Isomer 2] | Emax | 5%
CCOC(=O)[C@H]1[C@@H]2CN(C3CC4(C3)CN(C(=O)OCC)C4)C[C@@H]21 | Emax | 6%
CCOC(=O)C1C2CN(C3CC4(CCN(C(=O)OCC)C4)C3)CC21 (mixture of isomers) [2-1 Mixture of isomers] | Emax | 0%
CCOC(=O)N1CCC2(CC(N3CC4C(C3)C4C(CC)=NOC)C2)C1 (single isomer, unassigned) [2-25 Isomer 4] | Emax | 4%
CCOC(=O)N1CCC2(CC(N3C[C@@H]4[C@H](C3)[C@H]4c3ccnn3C)C2)C1 (single isomer, unassigned) [2-29 Isomer 2] | Emax | 2%

----------
# experimental target: human muscarinic M1 receptor (Homo sapiens)
# Sequence (P11229 1-460): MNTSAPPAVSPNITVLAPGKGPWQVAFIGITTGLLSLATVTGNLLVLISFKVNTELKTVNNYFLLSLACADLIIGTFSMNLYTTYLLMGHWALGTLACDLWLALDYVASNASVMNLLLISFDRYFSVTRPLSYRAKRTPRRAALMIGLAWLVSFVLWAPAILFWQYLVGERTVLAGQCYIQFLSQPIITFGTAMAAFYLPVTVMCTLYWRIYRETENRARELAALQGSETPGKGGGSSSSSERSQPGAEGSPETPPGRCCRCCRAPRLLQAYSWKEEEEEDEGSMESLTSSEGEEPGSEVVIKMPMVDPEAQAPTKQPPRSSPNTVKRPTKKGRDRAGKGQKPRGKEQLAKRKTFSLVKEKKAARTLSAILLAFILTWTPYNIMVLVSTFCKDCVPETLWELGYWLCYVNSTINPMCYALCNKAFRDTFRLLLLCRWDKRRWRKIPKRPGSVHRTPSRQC
# test details: Alphascreen Surefire phospho-ERK1/2 functional assay, M1
# Assay type: cell-based
# condition label: CHO cells stably expressing human M1; agonist 5 min, 37° C.
reported property: pEC50 M1

compound | experimental target | reported property | censoring qualifier | data value
CCOC(=O)N1C2CCC1CC(N1CC3C(CN(CC)C(C)=O)C3C1)C2 (single isomer, unassigned; isomer 2) [7-5 Isomer 2] | human muscarinic M1 receptor (Homo sapiens) | pEC50 M1 | < | 4.70
CCOC(=O)N1C2CCC1CC(N1CC3C(C1)C3C(=O)N(C)CC)C2 (single isomer, unassigned; isomer 1) [7-2 Isomer 1] | human muscarinic M1 receptor (Homo sapiens) | pEC50 M1 | = | 6.11
CCOC(=O)N1C2COCC1CC(N1CC3C(C1)C3C(=O)N(C)C1CC1)C2 (single isomer, unassigned; isomer 2) [10-8 Isomer 2] | human muscarinic M1 receptor (Homo sapiens) | pEC50 M1 | = | 5.65
CCOC(=O)N1C2CCC1CC(N1CC3C(C1)C3c1csc(C)n1)C2 (single isomer, unassigned; isomer 2) [7-6 Isomer 2] | human muscarinic M1 receptor (Homo sapiens) | pEC50 M1 | = | 5.94
CCOC(=O)N1C2CCCC1CC(N1CC3C(C1)C3C(=O)N(C)CC)C2 (single isomer, unassigned; isomer 1) [9-1 Isomer 1] | human muscarinic M1 receptor (Homo sapiens) | pEC50 M1 | = | 7.04
